EXPERIMENT_DESCRIPTION: Half life in rat plasma
Format: ADME, cell-free
VALUE_TYPE: half-life (h)
Give the number; h is assumed, so skip it.

Record request: half-life value, item `O=C(/C=C/CNCCOc1ccc(Oc2c(-c3ccc(F)cc3)sc3cc(O)ccc23)cc1)N1CCC1` 17

CC(Cc1cccc(C(F)(F)F)c1)NCCOC(=O)c1ccccc1 (configuration not stated) [BENFLUOREX] ? 0.472
